# Protocol summary: Octanol-water partition coefficient, log P of the compound
# Assay type: physicochemical
Measured property: logP

INSERT INTO measurements (input_smiles, measured_property, observed_value) VALUES
  ('COCCOCCOCCOCCOCCOC(=O)N[C@@H](CC(C)C)C(=O)N[C@@H](Cc1ccccc1)C(=O)C(=O)NC1CC1', 'logP', 0.72),
  ('COCCOCCOCCOC(=O)N[C@@H](CC(C)C)C(=O)N[C@@H](Cc1ccccc1)C(=O)C(=O)NC1CC1', 'logP', 0.93),
  ('COCCOCCOC(=O)N[C@@H](CC(C)C)C(=O)N[C@@H](Cc1ccccc1)C(=O)C(=O)NC1CC1', 'logP', 0.91);

(P) COCCOC(=O)N[C@@H](CC(C)C)C(=O)N[C@@H](Cc1ccccc1)C(=O)C(=O)NC1CC1
(Q) COCCOCCOCCOCCOC(=O)N[C@@H](CC(C)C)C(=O)N[C@@H](Cc1ccccc1)C(=O)C(=O)NC1CC1
Two entries are listed, P and Q . Which one carries the higher logP? Please reply using the label of the selected record.
P
(P: 1, Q: 0.7)

----------
# Protocol summary: AUC (0 to 4 hrs) in Japanese white rabbit aqueous humor after ocular instillation of 1% suspension
# Assay type: ADME, Oryctolagus cuniculus
# Parameters: time < 4 hr
# Condition parameters: topical or ocular
Measured property: AUC(0-t) at 4 h (µM·h)

# count of solved cases: 3
INSERT INTO results (input_smiles, measured_property, observed_value) VALUES
  ('COCCOCCOCCOCCOC(=O)N[C@@H](CC(C)C)C(=O)N[C@@H](Cc1ccccc1)C(=O)C(=O)NC1CC1', 'AUC(0-t) at 4 h', 5.89),
  ('COCCOC(=O)N[C@@H](CC(C)C)C(=O)N[C@@H](Cc1ccccc1)C(=O)C(=O)NC1CC1', 'AUC(0-t) at 4 h', 1.9),
  ('COCCOCCOC(=O)N[C@@H](CC(C)C)C(=O)N[C@@H](Cc1ccccc1)C(=O)C(=O)NC1CC1', 'AUC(0-t) at 4 h', 1.55);

(a) COCCOCCOCCOCCOCCOC(=O)N[C@@H](CC(C)C)C(=O)N[C@@H](Cc1ccccc1)C(=O)C(=O)NC1CC1
(b) COCCOCCOCCOC(=O)N[C@@H](CC(C)C)C(=O)N[C@@H](Cc1ccccc1)C(=O)C(=O)NC1CC1
// select label with min value of measured AUC(0-t) at 4 h from [ a , b ] Please reply using the label of the selected record.
a

----------
# Protocol summary: AUC (0 to 4 hrs) in Japanese white rabbit retina after ocular instillation of 1% suspension
# Type: ADME, tissue-based, Oryctolagus cuniculus
# Parameters: time < 4 hr
# Condition parameters: topical or ocular
Measured property: AUC(0-t) at 4 h (µM·h)

INSERT INTO measurements (input_smiles, measured_property, observed_value) VALUES
  ('COCCOC(=O)N[C@@H](CC(C)C)C(=O)N[C@@H](Cc1ccccc1)C(=O)C(=O)NC1CC1', 'AUC(0-t) at 4 h', 1.32),
  ('COCCOCCOC(=O)N[C@@H](CC(C)C)C(=O)N[C@@H](Cc1ccccc1)C(=O)C(=O)NC1CC1', 'AUC(0-t) at 4 h', 2.37),
  ('COCCOCCOCCOC(=O)N[C@@H](CC(C)C)C(=O)N[C@@H](Cc1ccccc1)C(=O)C(=O)NC1CC1', 'AUC(0-t) at 4 h', 13.1);

(A) COCCOCCOCCOCCOC(=O)N[C@@H](CC(C)C)C(=O)N[C@@H](Cc1ccccc1)C(=O)C(=O)NC1CC1
(B) COCCOCCOCCOCCOCCOC(=O)N[C@@H](CC(C)C)C(=O)N[C@@H](Cc1ccccc1)C(=O)C(=O)NC1CC1
// select label with min value of measured AUC(0-t) at 4 h from [ A , B ] Please reply using the label of the selected record.
B

----------
# Protocol summary: Drug concentration in rat retina at 10 mg/kg, po at Tmax time
# Type: ADME, organism-based
# Set-up: dose 10 mg/kg, route oral
# Condition parameters: in vivo, read-out: Drug uptake
Measured property: concentration (nM)
Numeric only. Scale: nM

Which measured concentration value corresponds to COCCOCCOC(=O)N[C@@H](CC(C)C)C(=O)N[C@@H](Cc1ccccc1)C(=O)C(=O)NC1CC1 ?
400

----------
# Protocol summary: Plasma AUC (0 to 4 hrs) in cynomolgus monkey at 10 mg/kg, po
# Assay type: ADME, organism-based, Macaca fascicularis
# Parameters: time < 4 hr, dose 10 mg/kg, route oral
Measured property: AUC(0-t) at 4 h (µM·h)

INSERT INTO measurements (input_smiles, measurement_unit, observed_value) VALUES
  ('COCCOCCOC(=O)N[C@@H](CC(C)C)C(=O)N[C@@H](Cc1ccccc1)C(=O)C(=O)NC1CC1', 'µM·h', 2.43),
  ('COCCOCCOCCOC(=O)N[C@@H](CC(C)C)C(=O)N[C@@H](Cc1ccccc1)C(=O)C(=O)NC1CC1', 'µM·h', 1.6),
  ('COCCOCCOCCOCCOC(=O)N[C@@H](CC(C)C)C(=O)N[C@@H](Cc1ccccc1)C(=O)C(=O)NC1CC1', 'µM·h', 1.61),
  ('COCCOC(=O)N[C@@H](CC(C)C)C(=O)N[C@@H](Cc1ccccc1)C(=O)C(=O)NC1CC1', 'µM·h', 1.88);
